# measured-on: Somatostatin receptor type 1 (Homo sapiens, UniProt P30872)
# Sequence (P30872 whole entry): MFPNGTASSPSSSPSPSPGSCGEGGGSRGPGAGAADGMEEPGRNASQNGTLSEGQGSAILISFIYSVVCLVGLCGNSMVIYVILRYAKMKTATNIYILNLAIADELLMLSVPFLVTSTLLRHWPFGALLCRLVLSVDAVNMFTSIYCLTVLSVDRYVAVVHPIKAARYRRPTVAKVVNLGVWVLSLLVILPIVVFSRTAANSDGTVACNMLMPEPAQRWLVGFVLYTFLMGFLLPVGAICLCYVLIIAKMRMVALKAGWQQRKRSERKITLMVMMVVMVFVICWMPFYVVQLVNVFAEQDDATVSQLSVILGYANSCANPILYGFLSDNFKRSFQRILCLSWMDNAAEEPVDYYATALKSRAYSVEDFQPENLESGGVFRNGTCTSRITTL
# assay-name: Binding affinity towards human Somatostatin receptor type 1 (sst1) using Tyr11-[125I]-SRIF as radioligand was determined in CHO cells
Positions of bridges follow the written chain, without caps; N, C: chain ends. Residues, ends and D or L forms follow the SMILES beside them.
readout-name: Ki (nM)
Quick reminder: number only, in nM, skip the unit.

Please review the following examples before continuing.
[[record]]
compound = "C[C@H](N)C(=O)NCC(=O)N[C@H]1CSSC[C@@H](C(N)=O)NC(=O)[C@H](C)NC(=O)[C@H]([C@@H](C)O)NC(=O)[C@H](Cc2ccccc2)NC(=O)[C@H]([C@@H](C)O)NC(=O)[C@H](CCCCN)NC(=O)[C@H](Cc2c[nH]c3ccccc23)NC(=O)[C@H](Cc2ccccc2)NC(=O)[C@H](Cc2ccccc2)NC(=O)[C@H](CC(N)=O)NC(=O)[C@H](CCCCN)NC1=O (H-AGCKNFFWKTFTAC-NH2; disulfide 3-14)"
obs_value = 0.158

[[record]]
compound = "NCCCC[C@@H]1NC(=O)[C@@H](Cc2c[nH]c3ccccc23)NC(=O)[C@H](Cc2c[nH]cn2)NC(=O)[C@@H]2C[C@@H](OC(=O)NCCN)CN2C(=O)[C@H](Cc2ccccc2)NC(=O)[C@H](Cc2ccc(OCc3ccccc3)cc2)NC1=O"
obs_value = 3.98


For the next question, use this compound.
# input Field request: Ki | item: CC(C)[C@@H]1NC(=O)[C@H](CCCCN)NC(=O)[C@@H](Cc2c[nH]c3ccccc23)NC(=O)[C@H](Cc2ccc(O)cc2)NC(=O)[C@@H](NC(=O)[C@H](N)Cc2ccc3ccccc3c2)CSSC[C@@H](C(=O)N[C@H](C(N)=O)[C@@H](C)O)NC1=O [LANREOTIDE]
# output 501

Hello, the source for this data is ChEMBL document CHEMBL1145006, in case you need it.
